biological target: native mouse MET on living cells (mouse, UniProt P16056 25-1379); experiment: cell-based or functional assay
propertyMeasured: scatter score 0-4, MLP29, 0.111 nM
Field: value (include unit after the number)

{"binder": "71G12 chimeric llama-human IgG1 mAb (antibody, V domains shown, llama VH on human IgG1 CH1-CH2-CH3, llama VL on human kappa CL) VH: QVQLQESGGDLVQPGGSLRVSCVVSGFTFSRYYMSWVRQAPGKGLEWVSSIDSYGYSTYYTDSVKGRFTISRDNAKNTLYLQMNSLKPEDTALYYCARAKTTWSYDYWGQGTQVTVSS VL: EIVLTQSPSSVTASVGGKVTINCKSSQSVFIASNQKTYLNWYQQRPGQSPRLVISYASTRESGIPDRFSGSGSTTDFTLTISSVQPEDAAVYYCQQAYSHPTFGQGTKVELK", "propertyMeasured": "scatter score 0-4, MLP29, 0.111 nM", "testValue": "0 score"}

# scatter score 0-4, MLP29, 0.111 nM (binder: 71A3 chimeric llama-human IgG1 mAb (antibody, V domains shown, llama VH on human IgG1 CH1-CH2-CH3, llama VL on human lambda CL) VH: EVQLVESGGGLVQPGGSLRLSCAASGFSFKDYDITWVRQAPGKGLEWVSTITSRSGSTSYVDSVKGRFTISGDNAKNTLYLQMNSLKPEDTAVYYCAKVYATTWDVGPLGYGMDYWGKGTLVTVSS VL: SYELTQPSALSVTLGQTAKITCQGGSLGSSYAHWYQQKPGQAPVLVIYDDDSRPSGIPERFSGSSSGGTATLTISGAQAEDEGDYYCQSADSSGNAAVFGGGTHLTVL ) is 3 score
